Recorded composite z-score, one value per entry.
Assay: small-molecule microarray binders of probe aNog, primary screen, biochemical, biotinylated probe, 635/667 nm fluorescence (AID 1115);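 note: probe is biotinylated aNog protein used at 0.15 µg/mL for 1 h at 4 C; z-score combines 667 nm fluorescence of each spot with its signal to noise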
Conditions: higher = more signal
Simply state the number, no unit and no words.

See these solved cases before continuing.
[
  {
    "COMPOUND": "COc1cc2c(cc1O)C(c1cccs1)N(C)CC2 (stereo not drawn)",
    "composite z-score": -0.215
  },
  {
    "COMPOUND": "CN(C)CCCC[C@@H]1NC(=O)[C@H]2C[C@@H](C(=O)NCCCCCCN)[C@@H](c3ccc(O)cc3)N2C1=O",
    "composite z-score": 1.59
  },
  {
    "COMPOUND": "CN(C)CCCC[C@@H]1NC(=O)[C@@H]2C[C@H](C(=O)NCCCCCCN)[C@H](c3cccc(OCCO)c3)N2C1=O",
    "composite z-score": 1.13
  },
  {
    "COMPOUND": "COC(=O)[C@@]1(Cc2ccc(F)cc2)[C@H]2c3cc(C(=O)N(C)C)n(Cc4ccc(Cl)c(C(F)(F)F)c4)c3C[C@H]2CN1C(=O)c1ccccc1",
    "composite z-score": -0.222
  },
  {
    "COMPOUND": "C=CCN1C(=O)[C@@]2(CC=C)N=C(c3ccc(OCCCO)cc3)O[C@H]2c2ccccc21",
    "composite z-score": 0.808
  },
  {
    "COMPOUND": "COC(=O)[C@@]1(Cc2ccccc2)[C@H]2c3cc(C(=O)N4CCCC4)n(Cc4ccc(S(C)(=O)=O)cc4)c3C[C@H]2CN1C(=O)c1ccccc1",
    "composite z-score": -0.232
  },
  {
    "COMPOUND": "CC(C)NC(=O)[C@@]1(c2ccc([N+](=O)[O-])cc2)CC(=O)N(C2CCCCC2)[C@@H]1c1ccc(CO)cc1I",
    "composite z-score": 0.176
  }
]

API: the following record is the query input.
I have this compound here, CCOC(=O)C[C@H]1[C@H](OC(=O)c2cc3ccccc3oc2=O)[C@@H](NC(=O)c2ccccc2)c2cc(OCCCO)ccc2N1C(=O)c1ccc2ccccc2n1 , and I need its recorded composite z-score.
-0.242

====

Recorded z-score, one value per entry.
Assay: adipocyte viability effects, profiling panel, cell-based, 3T3-L1 adipocytes, calcein-AM fluorescence, 48 h, basal (AID 1163); note: test concentration not given here
Conditions: 3T3-L1 adipocytes viability, higher = more signal

See these solved cases before continuing.
[
  {
    "COMPOUND": "CCC[C@@H]1C[C@@]1(CCC)[C@@H](NC(=O)c1ccccc1)c1cccc(Cl)c1",
    "OBSERVED RESULT": -0.546
  },
  {
    "COMPOUND": "C#C[C@H](O[Si](C#Cc1ccc(Oc2ccccc2)cc1)(C(C)C)C(C)C)c1ccccc1",
    "OBSERVED RESULT": -1.19
  },
  {
    "COMPOUND": "CCCC[C@H]1OB(O)C[C@H]2C1=C(COC)Cn1c(=O)n(-c3ccccc3)c(=O)n12",
    "OBSERVED RESULT": -0.21
  }
]

I have this compound here, O=C1C2C=CC(C(O)CCc3ccccc3)N(Nc3ccccc3F)C2C(=O)N1c1ccccc1 (stereo not given) , and I need its recorded z-score.
0.255

I have this compound here, CCCCN1CC=CC23O[C@@H]4C=CCCOC(=O)C4[C@H]2C(=O)N(CCCCCCO)[C@@H]3C1=O (stereo not given in full) , and I need its recorded z-score.
-0.585

I have this compound here, C=CCOC(=O)[C@H]1[C@@H]2C(=O)O[C@@H](c3ccccc3)[C@@H](c3ccccc3)N2[C@@H](c2ccc(OCCOC(=O)[C@H]3C[C@H]4C(=O)N[C@@H](CCCCNC(C)=O)C(=O)N4[C@H]3c3ccc(O)cc3)cc2)[C@]12C(=O)Nc1ccc(I)cc12 , and I need its recorded z-score.
-0.0346

I have this compound here, CC(C)NC(=O)[C@@H]1c2ccccc2C(=O)N(C2Cc3ccccc3C2)[C@H]1c1ccc(CO)cc1 , and I need its recorded z-score.
-0.27

I have this compound here, O=C1[C@@]23C=C(Br)[C@H](C[C@@H]2CCOC3)[C@@]12CO2 , and I need its recorded z-score.
-0.711

I have this compound here, COCCCNC(=O)[C@@]1(C)c2ccccc2C(=O)N(C(C)C)[C@H]1c1ccc(CO)cc1 , and I need its recorded z-score.
-0.208

I have this compound here, C=CCNC(=O)[C@@H]1[C@H]2C(=O)O[C@H](c3ccccc3)[C@H](c3ccccc3)N2[C@H](c2ccc(O)cc2)[C@@]12C(=O)N(C(=O)OCCOC)c1ccc(C#CCNC(N)=O)cc12 , and I need its recorded z-score.
0.921

====

Test system: Wnt5a (protein binding on small-molecule microarray)
Test: Wnt5a binders on small-molecule microarray, primary screen, biophysical, 635/667 nm fluorescence (AID 1142);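 note: fluorescence read at 667 nm with signal to noise per printed feature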
Details: 635 nm fluorescence, higher = more signal
QUANTITY MEASURED: composite z-score
Simply state the number, no unit and no words.

See these solved cases before continuing.
[
  {
    "COMPOUND": "CCOC(=O)C[C@H]1[C@H](OC(=O)c2ccccc2-c2ccccc2)[C@@H](NC(=O)CC(C)C)c2cc(OCCCO)ccc2N1C(=O)Cc1ccc(OC)cc1",
    "OBSERVED RESULT": -0.0051
  },
  {
    "COMPOUND": "COC(=O)[C@@]1(Cc2ccccc2)[C@H]2c3cc(C(=O)N(C)C)n(Cc4ccsc4Br)c3C[C@H]2CN1C(=O)c1ccccc1",
    "OBSERVED RESULT": 0.211
  },
  {
    "COMPOUND": "CN1C(=O)C2C=CC(C(O)c3ccco3)N(Nc3ccccc3)C2C1=O (stereo not given)",
    "OBSERVED RESULT": 0.148
  }
]

API: the following record is the query input.
I have this compound here, O[C@@H](Cc1ccccc1)[C@H]1C2C=CCCC=C2CN1Cc1cccc(Cl)c1 (stereo not given in full) , and I need its recorded composite z-score.
0.35

====

Biological target: NADPH oxidase 4 (Homo sapiens) (UniProt Q9NPH5)
Sequence (Q9NPH5 whole entry, looked up): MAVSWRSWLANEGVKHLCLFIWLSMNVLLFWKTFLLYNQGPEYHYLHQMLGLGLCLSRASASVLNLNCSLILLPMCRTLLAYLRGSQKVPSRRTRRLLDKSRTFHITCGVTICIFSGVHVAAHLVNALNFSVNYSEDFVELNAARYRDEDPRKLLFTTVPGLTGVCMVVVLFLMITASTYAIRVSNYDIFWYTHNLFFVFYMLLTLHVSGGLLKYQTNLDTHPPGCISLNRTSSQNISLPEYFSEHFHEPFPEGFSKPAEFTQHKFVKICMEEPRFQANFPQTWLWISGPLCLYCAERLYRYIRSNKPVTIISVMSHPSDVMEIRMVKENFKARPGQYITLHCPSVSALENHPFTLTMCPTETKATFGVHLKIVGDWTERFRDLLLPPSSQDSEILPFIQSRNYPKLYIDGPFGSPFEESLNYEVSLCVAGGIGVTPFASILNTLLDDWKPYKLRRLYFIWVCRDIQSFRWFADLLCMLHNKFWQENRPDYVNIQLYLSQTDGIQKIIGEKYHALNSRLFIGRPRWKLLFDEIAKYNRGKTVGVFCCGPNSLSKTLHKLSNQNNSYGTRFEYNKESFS
Experiment: NOX4-dependent H2O2 signal modulators, primary screen, NOX inhibitor project, cell-based, HEK293-NOX4, tetracycline-induced, Amplex Red fluorescence (AID 1160)
Conditions: 45 min, higher = more signal, called active from +8 up or from −8 down
Recorded z-score, one value per entry.
Simply state the number, no unit and no words.

See these solved cases before continuing.
[
  {
    "MOLECULE": "CC(C)=CCCC(C)=CC(O)C1C=CC2C(=O)N(C)C(=O)C2N1Nc1ccccc1 (configuration not stated)",
    "STUDY SYSTEM": "NADPH oxidase 4 (Homo sapiens) (UniProt Q9NPH5)",
    "z-score": -3.97
  },
  {
    "MOLECULE": "CCOC(=O)C[C@H]1[C@H](OC(=O)c2ccc(C(=O)c3ccccc3)cc2)[C@@H](NC(=O)c2ccc3ccccc3n2)c2cc(OCCCO)ccc2N1C(=O)c1ccccc1",
    "STUDY SYSTEM": "NADPH oxidase 4 (Homo sapiens) (UniProt Q9NPH5)",
    "z-score": 1.06
  },
  {
    "MOLECULE": "C=C(COC)/C(=C/C[C@@H](OC(C)=O)c1ccc(OCCO)cc1)c1cnc2ccccc2c1",
    "STUDY SYSTEM": "NADPH oxidase 4 (Homo sapiens) (UniProt Q9NPH5)",
    "z-score": -0.287
  },
  {
    "MOLECULE": "O[C@@H](Cc1ccccc1)[C@H]1C2C=CCCC=C2CN1Cc1cccc(Cl)c1 (some centres not stated)",
    "STUDY SYSTEM": "NADPH oxidase 4 (Homo sapiens) (UniProt Q9NPH5)",
    "z-score": -1.27
  }
]

I have this molecule here, CCS[C@H]1[C@@H](C(=O)O)[C@H](c2ccc(C)cc2)N(S(=O)(=O)c2ccc(C)cc2)[C@@H]1CC , and I need its recorded z-score.
-0.149

I have this molecule here, Cc1ccc(S[C@]2(C(=O)NCCCN(C)C)CC(=O)N(Cc3ccccc3C(F)(F)F)[C@@H]2c2ccc(CO)cc2)cc1 , and I need its recorded z-score.
0.165

I have this molecule here, C=CCNC(=O)[C@@H]1[C@H]2C(=O)O[C@H](c3ccccc3)[C@H](c3ccccc3)N2[C@H](c2ccc(O)cc2)[C@@]12C(=O)N(C(=O)OCCOC)c1ccc(C#CCNC(N)=O)cc12 , and I need its recorded z-score.
0.438

====

Recorded z-score, one value per entry.
Test: RPMI8226 myeloma cell viability, profiling panel, resazurin fluorescence, basal, 24 h, PK04 Diversity Set (AID 1180);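 note: RPMI8826 multiple myeloma cell line at 5000 cells per well; test concentration not given here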
Conditions: higher = more signal
Simply state the number, no unit and no words.

[
  {
    "COMPOUND SMILES": "CN(C)C(=O)[C@]1(Cc2ccccc2N=[N+]=[N-])N=C(c2ccc(OCCCO)cc2)O[C@@H]1c1ccccc1N=[N+]=[N-]",
    "z-score": -3.87
  }
]

I have this compound here, NC(=O)[C@@H]1[C@H]2C(=O)O[C@H](c3ccccc3)[C@H](c3ccccc3)N2[C@H](c2ccc(O)cc2)[C@@]12C(=O)Nc1ccccc12 , and I need its recorded z-score.
-0.224

I have this compound here, COC(=O)C[C@H]1O[C@]2(C(=O)N(C)c3ccccc32)[C@@H](C)[C@@H]1[Si](C)(C)F , and I need its recorded z-score.
2.42

I have this compound here, COC(=O)[C@@]1(Cc2ccc(OC)cc2)[C@H]2c3cc(C(=O)N(C)C)n(Cc4ccc(S(C)(=O)=O)cc4)c3C[C@H]2CN1C(=O)c1ccccc1 , and I need its recorded z-score.
0.766

I have this compound here, Oc1ccc2cc[n+](Cc3sc4ccccc4c3Cl)cc2c1 , and I need its recorded z-score.
-0.624

I have this compound here, CCc1cccc(NC(=O)O[C@H]2[C@H](OC(=O)Nc3ccccc3-c3ccccc3)[C@@H](OC(=O)Nc3ccccc3-c3ccccc3)[C@@H](OC)O[C@@H]2CO)c1 , and I need its recorded z-score.
-5.09

I have this compound here, C=CCNC(=O)[C@@H]1[C@H]2C(=O)O[C@H](c3ccccc3)[C@H](c3ccccc3)N2[C@H](c2ccc(OCCO)cc2)[C@@]12C(=O)Nc1ccc(C#CCC(C(=O)OC)C(=O)OC)cc12 , and I need its recorded z-score.
-5.98

// provenance: PubChem BioAssay
